# MEASUREMENT_DESCRIPTION: Average animal weight in MCF-7 mouse xenograft model
# Assay type: in vivo
# CONDITION_INFO: nude mice with MCF-7 xenograft, i.p., day 0
MEASURE_NAME: Average Weight of Animals in Grams after Days 0 (Grams)

INSERT INTO measurements (compound, test_value) VALUES
  ('O=C(Cn1cnc2scc(-c3cccs3)c2c1=O)NN1C(=O)CSC1=Nc1ccccc1 [Compound 11]', 26.6),
  ('O=C(Cn1cnc2scc(-c3cccs3)c2c1=O)NN1C(=O)CSC1c1ccc(Cl)cc1 (centres unmarked) [Compound 9]', 24.1),
  ('O=c1oc(Cn2cnc3scc(-c4cccs4)c3c2=O)nc2ccccc12 [Compound 5]', 22.9),
  ('O=C(Cn1cnc2scc(-c3cccs3)c2c1=O)NN=Cc1ccc(Cl)cc1 [Compound 7]', 27.3),
  ('O=C(Cn1cnc2scc(-c3cccs3)c2c1=O)NNC(=S)Nc1ccccc1 [Compound 10]', 24.9),
  ('CCOC(=O)Cn1cnc2scc(-c3cccs3)c2c1=O [Compound 3]', 28),
  ('Nc1cc(O)cc(=O)n1NC(=O)Cn1cnc2scc(-c3cccs3)c2c1=O [Compound 14]', 26.5),
  ('COc1cccc(C=NNC(=O)Cn2cnc3scc(-c4cccs4)c3c2=O)c1OC [Compound 6]', 23.7);
